- ASSAY_TEXT: Plasma pharmacokinetics after IV or PO administration
- Format: in vivo, SD Rat
- REPORTED_CONDITIONS: Sprague-Dawley, rat, plasma, po, 40 mg/kg, SD Rat, PO 40 mg/kg, 8 h; read-out: Plasma concentrations of Pirfenidone, Mean
PARAMETER_MEASURED: concentration at 8 h

Cc1ccc(=O)n(-c2ccccc2)c1 [Pirfenidone, 5 methyl-1-phenyl-2-[H] pyridone] : 65.3 ng/mL

###

- ASSAY_TEXT: Plasma pharmacokinetics after IV or PO administration
- Assay type: in vivo, SD Rat
- REPORTED_CONDITIONS: Sprague-Dawley, rat, plasma, iv, 40 mg/kg, SD Rat, IV 40 mg/kg, 8 h; read-out: Plasma concentrations of Pirfenidone, Mean
PARAMETER_MEASURED: concentration at 8 h (ng/mL)

Cc1ccc(=O)n(-c2ccccc2)c1 [Pirfenidone, 5 methyl-1-phenyl-2-[H] pyridone] : 1.22

###

- ASSAY_TEXT: Plasma pharmacokinetics after IV or PO administration
- Assay type: in vivo, SD Rat
- REPORTED_CONDITIONS: Sprague-Dawley, rat, serum, po, 40 mg/kg, SD Rat, PO 40 mg/kg; read-out: MRTINF, Mean
PARAMETER_MEASURED: MRT inf (h)

Cc1ccc(=O)n(-c2ccccc2)c1 [Pirfenidone, 5 methyl-1-phenyl-2-[H] pyridone] : 1.28

###

- ASSAY_TEXT: Plasma pharmacokinetics after IV or PO administration
- Format: in vivo, SD Rat
- REPORTED_CONDITIONS: Sprague-Dawley, rat, plasma, iv, 40 mg/kg, SD Rat, IV 40 mg/kg, 0.083 h; read-out: Plasma concentrations of Pirfenidone, Mean
PARAMETER_MEASURED: concentration at 0.083 h (ng/mL)

Cc1ccc(=O)n(-c2ccccc2)c1 [Pirfenidone, 5 methyl-1-phenyl-2-[H] pyridone] : 33700

###

- ASSAY_TEXT: Plasma pharmacokinetics after IV or PO administration
- Assay type: in vivo, SD Rat
- REPORTED_CONDITIONS: Sprague-Dawley, rat, plasma, iv, 40 mg/kg, SD Rat, IV 40 mg/kg, 1 h; read-out: Plasma concentrations of Pirfenidone, Mean
PARAMETER_MEASURED: concentration at 1 h

Cc1ccc(=O)n(-c2ccccc2)c1 [Pirfenidone, 5 methyl-1-phenyl-2-[H] pyridone] : 6940 ng/mL

###

- ASSAY_TEXT: Plasma pharmacokinetics after IV or PO administration
- Format: in vivo, SD Rat
- REPORTED_CONDITIONS: Sprague-Dawley, rat, plasma, po, 40 mg/kg, SD Rat, PO 40 mg/kg, individual rats 7-9; read-out: Cmax
PARAMETER_MEASURED: Cmax (ng/mL)

Cc1ccc(=O)n(-c2ccccc2)c1 [Pirfenidone, 5 methyl-1-phenyl-2-[H] pyridone] : 9130

###

- ASSAY_TEXT: Plasma pharmacokinetics after IV or PO administration
- Format: in vivo, SD Rat
- REPORTED_CONDITIONS: Sprague-Dawley, rat, plasma, po, 40 mg/kg, SD Rat, PO 40 mg/kg, 1 h; read-out: Plasma concentrations of Pirfenidone, Mean
PARAMETER_MEASURED: concentration at 1 h (ng/mL)

Cc1ccc(=O)n(-c2ccccc2)c1 [Pirfenidone, 5 methyl-1-phenyl-2-[H] pyridone] : 4070
